tested on: NCI-H196 SCLC complex tumor spheroid viability; experiment: Anticancer human tumor NCI-H196 cell line growth inhibition; conditions: second compound 0.0003 µM; first compound 0.3 µM; stronger effect = lower value;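 further: spheroids exposed to compounds for 7 days before readout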;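 on viability, T/C: 100% = DMSO vehicle control wells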
Measurement Kind: viability, T/C

Use the examples below as a reference point.
{"columns": ["Molecule", "Assay System", "viability, T/C"],
 "data": [
  ["Cn1ncnc1[C@H]1c2n[nH]c(=O)c3cc(F)cc(c23)N[C@@H]1c1ccc(F)cc1 + COc1cc2c(cc1O)CCNC21CSC2c3c(OC(C)=O)c(C)c4c(c3C(COC1=O)N1C(O)C3Cc5cc(C)c(OC)c(O)c5C(C21)N3C)OCO4", "NCI-H196 SCLC complex tumor spheroid viability", "93.5%"],
  ["Cc1sc2c(c1C)C(c1ccc(Cl)cc1)=NC(CC(=O)Nc1ccc(O)cc1)c1nnc(C)n1-2 (centres undefined) + COc1cc2c(cc1O)CCNC21CSC2c3c(OC(C)=O)c(C)c4c(c3C(COC1=O)N1C(O)C3Cc5cc(C)c(OC)c(O)c5C(C21)N3C)OCO4", "NCI-H196 SCLC complex tumor spheroid viability", "88.7%"],
  ["CNCc1ccc(-c2cc(-c3nc(-c4ccc(S(=O)(=O)C(C)C)cc4)cnc3N)on2)cc1 + COc1cc2c(cc1O)CCNC21CSC2c3c(OC(C)=O)c(C)c4c(c3C(COC1=O)N1C(O)C3Cc5cc(C)c(OC)c(O)c5C(C21)N3C)OCO4", "NCI-H196 SCLC complex tumor spheroid viability", "105%"]
]}

# input Name the recorded viability, T/C for O=C(c1cc(Cc2n[nH]c(=O)c3ccccc23)ccc1F)N1CCN(C(=O)C2CC2)CC1 + COc1cc2c(cc1O)CCNC21CSC2c3c(OC(C)=O)c(C)c4c(c3C(COC1=O)N1C(O)C3Cc5cc(C)c(OC)c(O)c5C(C21)N3C)OCO4 .
# output 105%

====

tested on: NCI-H196 SCLC complex tumor spheroid viability; assay: Anticancer human tumor NCI-H196 cell line growth inhibition; settings: second compound 0.003 µM; first compound 0.949 µM; active = viability on the fitted dose curve at most 10% of control; inactive = the rest;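 further: spheroids exposed to compounds for 7 days before readout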
Write down the outcome that applies. Available outcomes: yes (1) (active), no (0) (inactive)

{"columns": ["Molecule", "Group Label"],
 "data": [
  ["CNCc1ccc(-c2cc(-c3nc(-c4ccc(S(=O)(=O)C(C)C)cc4)cnc3N)on2)cc1 + COc1cc2c(cc1O)CCNC21CSC2c3c(OC(C)=O)c(C)c4c(c3C(COC1=O)N1C(O)C3Cc5cc(C)c(OC)c(O)c5C(C21)N3C)OCO4", "no (0)"],
  ["Cn1ncnc1[C@H]1c2n[nH]c(=O)c3cc(F)cc(c23)N[C@@H]1c1ccc(F)cc1 + CC[C@@]1(O)C(=O)OCc2c1cc1n(c2=O)Cc2cc3c(CN(C)C)c(O)ccc3nc2-1", "no (0)"],
  ["Cn1ncnc1[C@H]1c2n[nH]c(=O)c3cc(F)cc(c23)N[C@@H]1c1ccc(F)cc1 + COc1cc2c(cc1O)CCNC21CSC2c3c(OC(C)=O)c(C)c4c(c3C(COC1=O)N1C(O)C3Cc5cc(C)c(OC)c(O)c5C(C21)N3C)OCO4", "yes (1)"],
  ["CNCc1ccc(-c2cc(-c3nc(-c4ccc(S(=O)(=O)C(C)C)cc4)cnc3N)on2)cc1 + CC[C@@]1(O)C(=O)OCc2c1cc1n(c2=O)Cc2cc3c(CN(C)C)c(O)ccc3nc2-1", "no (0)"]
]}

Continue with the molecule presented below.
# input Query: recorded result category for Cc1sc2c(c1C)C(c1ccc(Cl)cc1)=NC(CC(=O)Nc1ccc(O)cc1)c1nnc(C)n1-2 (stereo not given) + CC[C@@]1(O)C(=O)OCc2c1cc1n(c2=O)Cc2cc3c(CN(C)C)c(O)ccc3nc2-1 in this test
# output no (0)

====

test system: NCI-H196 SCLC complex tumor spheroid viability; experiment: Anticancer human tumor NCI-H196 cell line growth inhibition; conditions: second compound 31.6 µM; first compound 3.16 µM; stronger effect = lower value;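 further: spheroids exposed to compounds for 7 days before readout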;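 on viability, T/C: 100% = DMSO vehicle control wells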
Measurement Kind: viability, T/C (%)
Output spec: scalar in %, unitless text.

Use the examples below as a reference point.
{"columns": ["Compound", "Assay System", "viability, T/C, %"],
 "data": [
  ["COc1cc(C)[nH]c(=O)c1CN1CCc2c(Cl)cc(C(OC)C3COC3)c(Cl)c2C1=O (stereo unspecified) + Cn1nnc2c(C(N)=O)ncn2c1=O", "NCI-H196 SCLC complex tumor spheroid viability", 99],
  ["CC(C)n1c(=O)n(C)c2cnc3cc(F)c(-c4ccc(OCCCN5CCCCC5)nc4)cc3c21 + Cn1nnc2c(C(N)=O)ncn2c1=O", "NCI-H196 SCLC complex tumor spheroid viability", 116],
  ["COc1ccc([C@@H](O)c2cc(-c3ncnc4cc(N5CCOCC5)ccc34)c(F)cc2Cl)nn1 + Cn1nnc2c(C(N)=O)ncn2c1=O", "NCI-H196 SCLC complex tumor spheroid viability", 71.4],
  ["Cc1cc(C)c(CNC(=O)c2cc(-c3ccc(CN4CCOCC4)cc3)cc3c2cnn3C2CCCC2)c(=O)[nH]1 + Cn1nnc2c(C(N)=O)ncn2c1=O", "NCI-H196 SCLC complex tumor spheroid viability", 104],
  ["CC1COCCN1c1cc(-c2ccnn2C)c2ccnc(-c3ccn[nH]3)c2n1 (stereo unspecified) + Cn1nnc2c(C(N)=O)ncn2c1=O", "NCI-H196 SCLC complex tumor spheroid viability", 51.6]
]}

Consider the additional compound presented here.
# input Name the recorded viability, T/C for [2H]c1nc(C)nc([2H])c1-c1cc(NC[C@@H](C)c2cccc3c(C(=O)NC)ccnc23)ncn1 + Cn1nnc2c(C(N)=O)ncn2c1=O .
# output 99.8

====

test system: NCI-H196 SCLC complex tumor spheroid viability; test: Anticancer human tumor NCI-H196 cell line growth inhibition; conditions: curve of first compound; second compound 3.16 µM;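 further: spheroids exposed to compounds for 7 days before readout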
pIC50: −log10 of the molar value.
Measurement Kind: pIC50

Use the examples below as a reference point.
{"columns": ["Compound", "pIC50"],
 "data": [
  ["CC(C)n1c(=O)n(C)c2cnc3cc(F)c(-c4ccc(OCCCN5CCCCC5)nc4)cc3c21 + Cn1nnc2c(C(N)=O)ncn2c1=O", "< 5.00"],
  ["COc1cc(C)[nH]c(=O)c1CN1CCc2c(Cl)cc(C(OC)C3COC3)c(Cl)c2C1=O (stereo unspecified) + Cn1nnc2c(C(N)=O)ncn2c1=O", "< 5.00"],
  ["[2H]c1nc(C)nc([2H])c1-c1cc(NC[C@@H](C)c2cccc3c(C(=O)NC)ccnc23)ncn1 + Cn1nnc2c(C(N)=O)ncn2c1=O", "< 5.00"],
  ["CC1COCCN1c1cc(-c2ccnn2C)c2ccnc(-c3ccn[nH]3)c2n1 (stereo unspecified) + Cn1nnc2c(C(N)=O)ncn2c1=O", 5.67],
  ["Cn1ncnc1[C@H]1c2n[nH]c(=O)c3cc(F)cc(c23)N[C@@H]1c1ccc(F)cc1 + Cn1nnc2c(C(N)=O)ncn2c1=O", "< 5.52"]
]}

Consider the additional compound presented here.
# input What pIC50 appears in the records for this compound with NCI-H196 SCLC complex tumor spheroid viability? Cc1sc2c(c1C)C(c1ccc(Cl)cc1)=NC(CC(=O)Nc1ccc(O)cc1)c1nnc(C)n1-2 (stereo unspecified) + Cn1nnc2c(C(N)=O)ncn2c1=O
# output 6.17

====

test system: NCI-H196 SCLC complex tumor spheroid viability; test: Anticancer human tumor NCI-H196 cell line growth inhibition; conditions: curve of first compound; second compound 0.000949 µM;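 further: spheroids exposed to compounds for 7 days before readout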
Measurement Kind: IC50

Use the examples below as a reference point.
{"columns": ["Compound", "Val"],
 "data": [
  ["COc1cc(C)[nH]c(=O)c1CN1CCc2c(Cl)cc(C(OC)C3COC3)c(Cl)c2C1=O (stereo not given) + COc1cc2c(cc1O)CCNC21CSC2c3c(OC(C)=O)c(C)c4c(c3C(COC1=O)N1C(O)C3Cc5cc(C)c(OC)c(O)c5C(C21)N3C)OCO4", "> 10 µM"],
  ["Cc1sc2c(c1C)C(c1ccc(Cl)cc1)=NC(CC(=O)Nc1ccc(O)cc1)c1nnc(C)n1-2 (stereo not given) + COc1cc2c(cc1O)CCNC21CSC2c3c(OC(C)=O)c(C)c4c(c3C(COC1=O)N1C(O)C3Cc5cc(C)c(OC)c(O)c5C(C21)N3C)OCO4", "> 3 µM"],
  ["CNCc1ccc(-c2cc(-c3nc(-c4ccc(S(=O)(=O)C(C)C)cc4)cnc3N)on2)cc1 + COc1cc2c(cc1O)CCNC21CSC2c3c(OC(C)=O)c(C)c4c(c3C(COC1=O)N1C(O)C3Cc5cc(C)c(OC)c(O)c5C(C21)N3C)OCO4", "> 3 µM"],
  ["[2H]c1nc(C)nc([2H])c1-c1cc(NC[C@@H](C)c2cccc3c(C(=O)NC)ccnc23)ncn1 + COc1cc2c(cc1O)CCNC21CSC2c3c(OC(C)=O)c(C)c4c(c3C(COC1=O)N1C(O)C3Cc5cc(C)c(OC)c(O)c5C(C21)N3C)OCO4", "> 10 µM"],
  ["COc1ccc([C@@H](O)c2cc(-c3ncnc4cc(N5CCOCC5)ccc34)c(F)cc2Cl)nn1 + COc1cc2c(cc1O)CCNC21CSC2c3c(OC(C)=O)c(C)c4c(c3C(COC1=O)N1C(O)C3Cc5cc(C)c(OC)c(O)c5C(C21)N3C)OCO4", "0.975 µM"]
]}

# input Name the recorded IC50 for CC(C)n1c(=O)n(C)c2cnc3cc(F)c(-c4ccc(OCCCN5CCCCC5)nc4)cc3c21 + COc1cc2c(cc1O)CCNC21CSC2c3c(OC(C)=O)c(C)c4c(c3C(COC1=O)N1C(O)C3Cc5cc(C)c(OC)c(O)c5C(C21)N3C)OCO4 .
# output > 10 µM

# input Name the recorded IC50 for Cc1cc(C)c(CNC(=O)c2cc(-c3ccc(CN4CCOCC4)cc3)cc3c2cnn3C2CCCC2)c(=O)[nH]1 + COc1cc2c(cc1O)CCNC21CSC2c3c(OC(C)=O)c(C)c4c(c3C(COC1=O)N1C(O)C3Cc5cc(C)c(OC)c(O)c5C(C21)N3C)OCO4 .
# output > 10 µM

# input Name the recorded IC50 for CC1COCCN1c1cc(-c2ccnn2C)c2ccnc(-c3ccn[nH]3)c2n1 (stereo not given) + COc1cc2c(cc1O)CCNC21CSC2c3c(OC(C)=O)c(C)c4c(c3C(COC1=O)N1C(O)C3Cc5cc(C)c(OC)c(O)c5C(C21)N3C)OCO4 .
# output 0.711 µM

# input Name the recorded IC50 for Cn1ncnc1[C@H]1c2n[nH]c(=O)c3cc(F)cc(c23)N[C@@H]1c1ccc(F)cc1 + COc1cc2c(cc1O)CCNC21CSC2c3c(OC(C)=O)c(C)c4c(c3C(COC1=O)N1C(O)C3Cc5cc(C)c(OC)c(O)c5C(C21)N3C)OCO4 .
# output > 3 µM

# input Name the recorded IC50 for O=C(c1cc(Cc2n[nH]c(=O)c3ccccc23)ccc1F)N1CCN(C(=O)C2CC2)CC1 + COc1cc2c(cc1O)CCNC21CSC2c3c(OC(C)=O)c(C)c4c(c3C(COC1=O)N1C(O)C3Cc5cc(C)c(OC)c(O)c5C(C21)N3C)OCO4 .
# output > 30 µM
